- Measurement protocol: Inhibition of NS5A in HCV genotype 1b infected in human HuH7 replicon cells assessed as reduction in subgenomic viral RNA replication treated for 2 days followed by compound washout and subsequent compound dosing measured after 1 day by SEAP reporter gene assay
Binarize EC50 at 2 nM; below is met, at or above is not met.

Example entries begin here.
# Entry smiles, Discrete label
rows = [
    ("COC(=O)N[C@H](C(=O)N1CCC[C@H]1c1ncc(-c2ccc(-c3ccc(-c4cnc([C@@H]5CCCN5C(=O)[C@H](NC(=O)OC)c5ccccc5)s4)cc3)cc2)s1)c1ccccc1", "not met"),
    ("CC(C)C(=O)N[C@@H](C(=O)N1CCC[C@H]1c1ncc(-c2ccc(-c3ccc(-c4cnc([C@@H]5CCCN5C(=O)[C@H](NC(=O)C(C)C)c5ccccc5)s4)cc3)cc2)s1)c1ccccc1", "met"),
    ("CC(C)[C@@H](NC(=O)C1CC1)C(=O)N1CCC[C@H]1c1ncc(-c2ccc(-c3ccc(-c4cnc([C@@H]5CCCN5C(=O)[C@H](NC(=O)C5CC5)C(C)C)s4)cc3)cc2)s1", "not met"),
    ("O=C(N[C@H](C(=O)N1CCC[C@H]1c1ncc(-c2ccc(-c3ccc(-c4cnc([C@@H]5CCCN5C(=O)[C@H](NC(=O)N5CCCCC5)c5ccccc5)s4)cc3)cc2)s1)c1ccccc1)N1CCCCC1", "met"),
]

Okay, now this compound:
*Q* Report whether reported EC50 is lower than 2 nM (strictly) for "CCCCCC(=O)N[C@H](C(=O)N1CCC[C@H]1c1ncc(-c2ccc(-c3ccc(-c4cnc([C@@H]5CCCN5C(=O)[C@H](NC(=O)CCCCC)c5ccccc5)s4)cc3)cc2)s1)c1ccccc1"
*A* not met

###

- Measurement protocol: Inhibition of NS5A in HCV genotype 1b infected in human HuH7 replicon cells assessed as reduction in subgenomic viral RNA replication treated for 2 days followed by compound washout and subsequent compound dosing measured after 1 day by SEAP reporter gene assay
Quantity name: pEC50
By convention, pEC50 is the negative base-10 log of a molar concentration.

Here are 4 compounds together with their reported answers.
# Entry smiles, pEC50
measured = [
    ("COC(=O)N[C@@H](C)C(=O)N1CCC[C@H]1c1ncc(-c2ccc(-c3ccc(-c4cnc([C@@H]5CCCN5C(=O)[C@H](C)NC(=O)OC)s4)cc3)cc2)s1", 6.80),
    ("O=C(N[C@H](C(=O)N1CCC[C@H]1c1ncc(-c2ccc(-c3ccc(-c4cnc([C@@H]5CCCN5C(=O)[C@H](NC(=O)c5cccs5)c5ccccc5)s4)cc3)cc2)s1)c1ccccc1)c1cccs1", 6.96),
    ("COC(=O)N[C@@H](CC(C)C)C(=O)N1CCC[C@H]1c1ncc(-c2ccc(-c3ccc(-c4cnc([C@@H]5CCCN5C(=O)[C@H](CC(C)C)NC(=O)OC)s4)cc3)cc2)s1", 6.75),
    ("O=C(N[C@@H](C(=O)N1CCC[C@H]1c1ncc(-c2ccc(-c3ccc(-c4cnc([C@@H]5CCCN5C(=O)[C@H](NC(=O)N5CCOCC5)c5ccccc5)s4)cc3)cc2)s1)c1ccccc1)N1CCOCC1", 10.70),
]

Proceed to the following item.
*Q* Requested field: pEC50. Item: "COC(=O)N[C@@H](C(=O)N1CCC[C@H]1c1ncc(-c2ccc(-c3ccc(-c4cnc([C@@H]5CCCN5C(=O)[C@H](NC(=O)OC)c5ccccc5)s4)cc3)cc2)s1)c1ccccc1"
*A* 9.72

###

- Measurement protocol: Inhibition of NS5A in HCV genotype 1b infected in human HuH7 replicon cells assessed as reduction in subgenomic viral RNA replication treated for 2 days followed by compound washout and subsequent compound dosing measured after 1 day by SEAP reporter gene assay
Quantity name: EC50 (nM)
Give the value in nM but do not write nM after it.

Here are 2 compounds together with their reported answers.
# Entry smiles, Result units, Obs value
rows = [
    ("O=C(N[C@H](C(=O)N1CCC[C@H]1c1ncc(-c2ccc(-c3ccc(-c4cnc([C@@H]5CCCN5C(=O)[C@H](NC(=O)C5CCC5)c5ccccc5)s4)cc3)cc2)s1)c1ccccc1)C1CCC1", "nM", 0.45),
    ("O=C(N[C@H](C(=O)N1CCC[C@H]1c1ncc(-c2ccc(-c3ccc(-c4cnc([C@@H]5CCCN5C(=O)[C@H](NC(=O)C5CC5)c5ccccc5)s4)cc3)cc2)s1)c1ccccc1)C1CC1", "nM", 1.5),
]

*Q* Requested field: EC50. Item: "CCCC[C@H](NC(=O)OC)C(=O)N1CCC[C@H]1c1ncc(-c2ccc(-c3ccc(-c4cnc([C@@H]5CCCN5C(=O)[C@H](CCCC)NC(=O)OC)s4)cc3)cc2)s1"
*A* 237

###

- Measurement protocol: Inhibition of NS5A in HCV genotype 1b infected in human HuH7 replicon cells assessed as reduction in subgenomic viral RNA replication treated for 2 days followed by compound washout and subsequent compound dosing measured after 1 day by SEAP reporter gene assay
Quantity name: pEC50
By convention, pEC50 is the negative base-10 log of a molar concentration.

# Entry smiles, pEC50
data = [
    ("O=C(CCN1CCCC1)N[C@@H](C(=O)N1CCC[C@H]1c1ncc(-c2ccc(-c3ccc(-c4cnc([C@@H]5CCCN5C(=O)[C@H](NC(=O)CCN5CCCC5)c5ccccc5)s4)cc3)cc2)s1)c1ccccc1", 8.40),
    ("O=C(Cc1ccccc1)N[C@H](C(=O)N1CCC[C@H]1c1ncc(-c2ccc(-c3ccc(-c4cnc([C@@H]5CCCN5C(=O)[C@H](NC(=O)Cc5ccccc5)c5ccccc5)s4)cc3)cc2)s1)c1ccccc1", 8.54),
]

Proceed to the following item.
*Q* Requested field: pEC50. Item: "O=C(N[C@@H](C(=O)N1CCC[C@H]1c1ncc(-c2ccc(-c3ccc(-c4cnc([C@@H]5CCCN5C(=O)[C@H](NC(=O)N5CCCCC5)c5ccccc5)s4)cc3)cc2)s1)c1ccccc1)N1CCCCC1"
*A* 10.80

###

- Measurement protocol: Inhibition of NS5A in HCV genotype 1b infected in human HuH7 replicon cells assessed as reduction in subgenomic viral RNA replication treated for 2 days followed by compound washout and subsequent compound dosing measured after 1 day by SEAP reporter gene assay
Quantity name: pEC50
By convention, pEC50 is the negative base-10 log of a molar concentration.

Here are 4 molecules together with their reported answers.
# Entry smiles, Obs value
rows = [
    ("CC(C)(C)C(=O)N[C@H](C(=O)N1CCC[C@H]1c1ncc(-c2ccc(-c3ccc(-c4cnc([C@@H]5CCCN5C(=O)[C@H](NC(=O)C(C)(C)C)c5ccccc5)s4)cc3)cc2)s1)c1ccccc1", 7.28),
    ("O=C(N[C@H](C(=O)N1CCC[C@H]1c1ncc(-c2ccc(-c3ccc(-c4cnc([C@@H]5CCCN5C(=O)[C@H](NC(=O)c5ccco5)c5ccccc5)s4)cc3)cc2)s1)c1ccccc1)c1ccco1", 8.77),
    ("CC(C)C(=O)N[C@H](C(=O)N1CCC[C@H]1c1ncc(-c2ccc(-c3ccc(-c4cnc([C@@H]5CCCN5C(=O)[C@H](NC(=O)C(C)C)c5ccccc5)s4)cc3)cc2)s1)c1ccccc1", 9.51),
    ("O=C(Cc1ccccc1)N[C@@H](C(=O)N1CCC[C@H]1c1ncc(-c2ccc(-c3ccc(-c4cnc([C@@H]5CCCN5C(=O)[C@H](NC(=O)Cc5ccccc5)c5ccccc5)s4)cc3)cc2)s1)c1ccccc1", 9.89),
]

Proceed to the following item.
*Q* Requested field: pEC50. Item: "O=C(N[C@@H](C(=O)N1CCC[C@H]1c1ncc(-c2ccc(-c3ccc(-c4cnc([C@@H]5CCCN5C(=O)[C@H](NC(=O)c5ccco5)c5ccccc5)s4)cc3)cc2)s1)c1ccccc1)c1ccco1"
*A* 10.15

###

Catalogue of EC50 values
- Measurement protocol: Inhibition of NS5A in HCV genotype 1b infected in human HuH7 replicon cells assessed as reduction in subgenomic viral RNA replication treated for 2 days followed by compound washout and subsequent compound dosing measured after 1 day by SEAP reporter gene assay

# Entry smiles, EC50
records = [
    ("CN(C)CCC(=O)N[C@H](C(=O)N1CCC[C@H]1c1ncc(-c2ccc(-c3ccc(-c4cnc([C@@H]5CCCN5C(=O)[C@H](NC(=O)CCN(C)C)c5ccccc5)s4)cc3)cc2)s1)c1ccccc1", "6.9 nM"),
]

*Q* Requested field: EC50. Item: "O=C(N[C@H](C(=O)N1CCC[C@H]1c1ncc(-c2ccc(-c3ccc(-c4cnc([C@@H]5CCCN5C(=O)[C@H](NC(=O)c5ccncc5)c5ccccc5)s4)cc3)cc2)s1)c1ccccc1)c1ccncc1"
*A* 0.37 nM

*Q* Queued: "O=C(N[C@H](C(=O)N1CCC[C@H]1c1ncc(-c2ccc(-c3ccc(-c4cnc([C@@H]5CCCN5C(=O)[C@H](NC(=O)N5CCOCC5)c5ccccc5)s4)cc3)cc2)s1)c1ccccc1)N1CCOCC1"
*A* 1.1 nM

*Q* Queued: "COC(=O)N[C@H](C(=O)N1CCC[C@H]1c1ncc(-c2ccc(-c3ccc(-c4cnc([C@@H]5CCCN5C(=O)[C@@H](NC(=O)OC)C(C)C)s4)cc3)cc2)s1)C(C)C"
*A* 56 nM

*Q* Queued: "CS(=O)(=O)N[C@H](C(=O)N1CCC[C@H]1c1ncc(-c2ccc(-c3ccc(-c4cnc([C@@H]5CCCN5C(=O)[C@H](NS(C)(=O)=O)c5ccccc5)s4)cc3)cc2)s1)c1ccccc1"
*A* 149 nM

*Q* Queued: "CCCCCC(=O)N[C@@H](C(=O)N1CCC[C@H]1c1ncc(-c2ccc(-c3ccc(-c4cnc([C@@H]5CCCN5C(=O)[C@H](NC(=O)CCCCC)c5ccccc5)s4)cc3)cc2)s1)c1ccccc1"
*A* 0.063 nM

*Q* Queued: "O=C(N[C@@H](C(=O)N1CCC[C@H]1c1ncc(-c2ccc(-c3ccc(-c4cnc([C@@H]5CCCN5C(=O)[C@H](NC(=O)C5CCCCC5)c5ccccc5)s4)cc3)cc2)s1)c1ccccc1)C1CCCCC1"
*A* 0.25 nM

*Q* Queued: "O=C(N[C@@H](C(=O)N1CCC[C@H]1c1ncc(-c2ccc(-c3ccc(-c4cnc([C@@H]5CCCN5C(=O)[C@H](NC(=O)C5CCCC5)c5ccccc5)s4)cc3)cc2)s1)c1ccccc1)C1CCCC1"
*A* 0.006 nM

*Q* Queued: "CN1CCN(CCC(=O)N[C@H](C(=O)N2CCC[C@H]2c2ncc(-c3ccc(-c4ccc(-c5cnc([C@@H]6CCCN6C(=O)[C@H](NC(=O)CCN6CCN(C)CC6)c6ccccc6)s5)cc4)cc3)s2)c2ccccc2)CC1"
*A* 102 nM

*Q* Queued: "CC(C)[C@H](NC(=O)Oc1ccccc1)C(=O)N1CCC[C@H]1c1ncc(-c2ccc(-c3ccc(-c4cnc([C@@H]5CCCN5C(=O)[C@@H](NC(=O)Oc5ccccc5)C(C)C)s4)cc3)cc2)s1"
*A* 2820 nM
